Reported values of inhibition at 5 µg/mL for individual entries
test system: human myelogenous leukemic cells (HL-60); test: Inhibition of proliferation using human myelogenous leukemic cells (HL-60); assay type: cell-based; details: 96 h, HL-60 cells, 5 µg/ml, stationary culture at 37°C for 4 days, surviving cell number (Trypan Blue) relative to control
ATTRIBUTE MEASURED: inhibition at 5 µg/mL (%)

compound=CCCCC[C@H](O)/C=C/[C@H]1C(=O)C[C@H](O)[C@@H]1C/C=C\CCCC(N)=O target_under_test="human myelogenous leukemic cells (HL-60)" reported=97.8
compound="CCCCCC=CC=C1C(=O)C=CC1CC=CCCCC(=O)NS(C)(=O)=O (stereo not drawn)" target_under_test="human myelogenous leukemic cells (HL-60)" reported=78.1
compound=CCCCC[C@H](O)/C=C/[C@H]1C(=O)C[C@H](O)[C@@H]1C/C=C\CCCC(=O)CO target_under_test="human myelogenous leukemic cells (HL-60)" reported=96.7
compound=CCCCC[C@H](O)/C=C/[C@H]1C(=O)C[C@H](O)[C@@H]1C/C=C\CCCC(=O)N(C)C target_under_test="human myelogenous leukemic cells (HL-60)" reported=99.1
compound=CCCCC[C@H](O)/C=C/[C@H]1C(=O)C=C[C@@H]1C/C=C\CCCC(=O)N(C)C target_under_test="human myelogenous leukemic cells (HL-60)" reported=100
compound="CCCCCC=CC=C1C(=O)C=CC1CC=CCCCC(=O)CO (stereo not drawn)" target_under_test="human myelogenous leukemic cells (HL-60)" reported=100
compound="CCCCC[C@H](O)/C=C/[C@H]1C(=O)C=C[C@@H]1C/C=C\\CCCC(=O)NS(C)(=O)=O [Compound 4, 9-Deoxy-Δ^9-PGD2 methanesulfonylamide]" target_under_test="human myelogenous leukemic cells (HL-60)" reported=1.5
compound="CCCCCC=CC=C1C(=O)C=CC1CC=CCCCC(=O)N(C)C (stereo not drawn)" target_under_test="human myelogenous leukemic cells (HL-60)" reported=100
compound=CCCCC[C@H](O)/C=C/[C@H]1C(=O)C=C[C@@H]1C/C=C\CCCC(=O)CO target_under_test="human myelogenous leukemic cells (HL-60)" reported=100
